Values were extracted from patent EP1282414B1.

Each record here notes measured TOX, number of animals exhibiting toxic effects / total number of animals tested.
System: mice
method: Minimal neurotoxicity (TOX), rotorod test, mice i.p.
Format: in vivo
testContext: mice i.p., 300 mg/kg, 0.5h

NC(=O)OCC(F)(COC(N)=O)c1ccccc1 [fluoro felbamate]
4/4
NC(=O)OCC(F)(CO)c1ccccc1 (stereo not shown) [fluoro monocarbamate felbamate]
2/4
O=C1NC(O)C(c2ccccc2)CO1 (stereo not shown)
0/4

Consider the additional compound presented here.
Noted for O=C1NC(=O)C(F)(c2ccccc2)CO1 (stereo not shown) : its TOX, number of animals exhibiting toxic effects / total number of animals tested reads 1/4

----------
Test system: MES-induced seizure spread
method: Maximal Electroshock Seizure (MES) test, rats p.o.
Assay type: in vivo, rat
testContext: rat p.o., 30 mg/kg, 1.0h
readoutLabel: MES, number of animals protected / total number of animals tested

// known answers, use as guide
NC(=O)OCC(F)(CO)c1ccccc1 (stereo not shown) [fluoro monocarbamate felbamate]
0/4
O=C1NC(=O)C(F)(c2ccccc2)CO1 (stereo not shown)
1/4
NC(=O)OCC(F)(COC(N)=O)c1ccccc1 [fluoro felbamate]
4/4

Consider the additional molecule presented here.
Noted for O=C1NC(O)C(c2ccccc2)CO1 (stereo not shown) : its MES, number of animals protected / total number of animals tested reads 1/4
